Parameter IC50, tested on Coagulation factor XI (Homo sapiens, UniProt P03951), listed per item.
Sequence (P03951 19-387 limits assumed): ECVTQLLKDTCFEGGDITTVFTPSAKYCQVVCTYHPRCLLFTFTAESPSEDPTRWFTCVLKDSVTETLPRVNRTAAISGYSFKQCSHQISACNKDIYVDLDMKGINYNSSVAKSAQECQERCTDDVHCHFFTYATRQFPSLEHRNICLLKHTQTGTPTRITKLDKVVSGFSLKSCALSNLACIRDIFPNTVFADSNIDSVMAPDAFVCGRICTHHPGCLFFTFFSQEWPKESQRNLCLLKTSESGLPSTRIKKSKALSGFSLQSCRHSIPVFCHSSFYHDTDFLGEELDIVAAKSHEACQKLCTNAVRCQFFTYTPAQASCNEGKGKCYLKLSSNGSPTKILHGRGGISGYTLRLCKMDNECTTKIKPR
Sequence (P03951 388-625 limits assumed): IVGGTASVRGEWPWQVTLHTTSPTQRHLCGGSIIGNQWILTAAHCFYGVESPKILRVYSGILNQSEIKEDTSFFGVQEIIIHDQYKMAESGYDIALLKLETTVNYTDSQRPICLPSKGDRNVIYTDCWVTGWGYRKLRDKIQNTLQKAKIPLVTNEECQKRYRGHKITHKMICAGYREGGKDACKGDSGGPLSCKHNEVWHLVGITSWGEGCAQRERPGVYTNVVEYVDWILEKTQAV
State the answer as a number, implicitly in µM.

Problem: Look at this compound and give its reported IC50. COc1cc(-c2nc3ccccc3c(=O)n2CCCCn2cc(Cn3c(-c4ccc(OS(=O)(=O)O)c(OC)c4)nc4ccccc4c3=O)nn2)ccc1OS(=O)(=O)O
Solution: 139

Problem: Name the recorded IC50 for O=c1c2ccccc2nc(-c2ccc(OS(=O)(=O)O)cc2)n1CCCCn1cc(Cn2c(-c3cccc(OS(=O)(=O)O)c3)nc3ccccc3c2=O)nn1 .
Solution: 159

Problem: Report IC50 for O=c1c2ccccc2nc(-c2cccc(OS(=O)(=O)O)c2)n1CCCCn1cc(Cn2c(-c3ccc(OS(=O)(=O)O)cc3)nc3ccccc3c2=O)nn1 please.
Solution: 91

Problem: Entry under review: O=c1c2ccccc2nc(-c2cccc(OS(=O)(=O)O)c2)n1CCCCn1cc(Cn2c(-c3cccc(OS(=O)(=O)O)c3)nc3ccccc3c2=O)nn1 . Reported IC50?
Solution: 102

Problem: What measured IC50 goes with COc1cc(-c2nc3ccccc3c(=O)n2CCCCn2cc(COc3cc(-c4oc5cc(OS(=O)(=O)O)cc(OC)c5c(=O)c4OS(=O)(=O)O)ccc3OS(=O)(=O)O)nn2)ccc1OS(=O)(=O)O ?
Solution: 216

Problem: Item COc1cc(-c2nc3ccccc3c(=O)n2CCCCn2cc(Cn3c(-c4cccc(OS(=O)(=O)O)c4)nc4ccccc4c3=O)nn2)ccc1OS(=O)(=O)O has what recorded IC50?
Solution: 182

Problem: Record request: IC50 value, item CC(=O)Oc1cc(OS(=O)(=O)O)cc(-c2nc3ccccc3c(=O)n2CCCCn2cc(Cn3c(-c4cc(OS(=O)(=O)O)cc(OS(=O)(=O)O)c4)nc4ccccc4c3=O)nn2)c1
Solution: 273
